Listed here are compounds together with their documented log10 of IC50.
Molecular target: menin and MLL (menin, Flag tagged; biotinylated MLL1 peptide 1-46aa) (Homo sapiens, UniProt O00255)
Sequence (O00255 1-610): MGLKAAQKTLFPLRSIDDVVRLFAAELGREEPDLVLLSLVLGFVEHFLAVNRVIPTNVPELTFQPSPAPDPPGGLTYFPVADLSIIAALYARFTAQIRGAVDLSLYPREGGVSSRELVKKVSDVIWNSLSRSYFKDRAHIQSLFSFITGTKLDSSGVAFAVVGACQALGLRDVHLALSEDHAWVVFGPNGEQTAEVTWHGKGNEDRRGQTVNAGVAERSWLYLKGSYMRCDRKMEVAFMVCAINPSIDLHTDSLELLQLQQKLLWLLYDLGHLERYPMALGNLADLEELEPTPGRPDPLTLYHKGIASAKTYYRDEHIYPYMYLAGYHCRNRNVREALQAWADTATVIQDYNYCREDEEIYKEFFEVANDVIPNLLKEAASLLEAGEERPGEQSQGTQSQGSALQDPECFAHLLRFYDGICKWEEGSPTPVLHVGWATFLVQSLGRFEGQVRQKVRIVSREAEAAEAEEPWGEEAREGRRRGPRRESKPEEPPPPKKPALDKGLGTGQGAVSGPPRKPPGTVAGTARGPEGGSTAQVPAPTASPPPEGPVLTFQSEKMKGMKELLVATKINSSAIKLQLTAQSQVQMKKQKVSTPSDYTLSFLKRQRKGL
Experiment: biochemical
Settings: cell free IC50 (nM), 1 nM menin, 10 nM biotinylated MLL1 peptide, AlphaLISA
Counter-ions that a name gives are not always drawn.
Note: values are log10 of IC50 expressed in nM.

Example entries and their recorded answers appear below.
compound | experimental_readout | assay_result
CN(c1ncnc2sc(CC(F)(F)F)cc12)[C@@H]1CC[C@H](NCc2ccc(C(=O)NCc3cnn(C)c3)cc2)C1 [Example 49, hydrochloride] | log10 of IC50 | 1.38
FC(F)(F)Cc1cc2c(N[C@@H]3CCC[C@H](NCc4ccc(-c5nnc[nH]5)cc4)C3)ncnc2s1 [Example 37, hydrochloride] | log10 of IC50 | 2.85
Cc1ncc(-c2ccc(CN[C@H]3CC[C@@H](N(C)c4ncnc5sc(CC(F)(F)F)cc45)C3)cc2)cc1OC(F)F [Example 58, hydrochloride] | log10 of IC50 | 1.18
COc1cncc(-c2ccc(CN[C@H]3C[C@@H](Nc4ncnc5sc(CC(F)(F)F)cc45)C[C@@H](C(=O)N(C)C)C3)cc2)c1 (single isomer, unassigned) [Example 17A, Hydrochloride] | log10 of IC50 | 3.35
COc1cncc(-c2ccc(CN(C)[C@@H]3C[C@H](O)C[C@H](Nc4ncnc5sc(CC(F)(F)F)cc45)C3)cc2)c1 | log10 of IC50 | 3.27

The compound CN(c1ncnc2sc(CC(F)(F)F)cc12)[C@@H]1CC[C@H](NCc2ccc(S(=O)(=O)c3ccccc3)cc2)C1 [Example 53, hydrochloride] showed log10 of IC50 equal to 1.25

The compound CN(c1ncnc2sc(CC(F)(F)F)cc12)[C@H]1C[C@@H](NCc2ccc(-c3cccc4c3cnn4S(C)(=O)=O)cc2)C[C@H]1O [Example 23, Hydrochloride] showed log10 of IC50 equal to 0.45

The compound COc1cncc(-c2ccc(CN[C@@H]3C[C@H](Nc4ncnc5sc(CC(F)(F)F)cc45)C[C@H](OC)C3)cc2)c1 (single isomer, unassigned) [Example 18A, Hydrochloride] showed log10 of IC50 equal to 1.01

The compound COc1cncc(-c2ccc(CN[C@H]3C[C@@H](O)C[C@@H](Nc4ncnc5sc(CC(F)(F)F)cc45)C3)cc2)c1 (single isomer, unassigned) [Example 15A, Hydrochloride] showed log10 of IC50 equal to 1.33

The compound CN(c1ncnc2ccc(CC(F)(F)F)cc12)[C@@H]1CC[C@H](NCc2ccc(O)cc2)C1 [Example 5, Hydrochloride] showed log10 of IC50 equal to 2.93

The compound CN(c1ncnc2sc(CC(F)(F)F)cc12)[C@@H]1CC[C@H](NCc2ccc(NCc3ccccc3)cc2)C1 [Example 7, Hydrochloride] showed log10 of IC50 equal to 2.18

The compound CN(c1ncnc2sc(CC(F)(F)F)cc12)[C@@H]1CC[C@H](NCc2ccc(-c3ccc(=O)[nH]c3)cc2)C1 [Example 11, Hydrochloride] showed log10 of IC50 equal to 1.81

The measurements presented in this section are drawn from patent US11236106B2.
